# target system: Yap3 (UniProt P38749)
# Sequence: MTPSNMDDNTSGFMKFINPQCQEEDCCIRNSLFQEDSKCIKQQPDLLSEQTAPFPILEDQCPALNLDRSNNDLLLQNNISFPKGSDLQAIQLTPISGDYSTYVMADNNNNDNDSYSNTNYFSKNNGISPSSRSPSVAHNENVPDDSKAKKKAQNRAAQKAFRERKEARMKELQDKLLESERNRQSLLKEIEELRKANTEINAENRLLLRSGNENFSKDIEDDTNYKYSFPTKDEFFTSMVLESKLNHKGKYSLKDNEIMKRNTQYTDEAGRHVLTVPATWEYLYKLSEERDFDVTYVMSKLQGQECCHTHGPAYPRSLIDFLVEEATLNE
# test method notes: PBM E-score (8-mer binding enrichment) (E-score (-0.5 to 0.5)); higher = stronger / more preferred TF binding
# assay conditions: protein concentration: 100 nM; construct: GST-full length
Whole data set: some 33,000 sequences, median “E-score (-0.5 to 0.5)” near -0.0034, cut for the highest 2% near 0.25. Many of the other results were omitted from the sample, so the highest values are more common in it than they were.
value type: PBM E-score

INSERT INTO assay_data (macromolecule_sequence, value_type, value) VALUES
  ('AGTCGCAC', 'PBM E-score', -0.233),
  ('GTTAGTCA', 'PBM E-score', 0.33),
  ('CCTTACTA', 'PBM E-score', 0.281),
  ('GTTAGTAA', 'PBM E-score', 0.217),
  ('AACTTTAA', 'PBM E-score', 0.234),
  ('TATTACAA', 'PBM E-score', 0.209);
